System: MEFs KRASWT
Test: Cell proliferation of Ras-less MEFs expressing human KRAS/BRAF
Settings: Mus musculus
measurement-type: IC50 (nM)
Respond numerically; units are nM and should not be typed.

Q) Requested read-out IC50, target or system MEFs KRASWT, entry CN1CCOC(CNC(=O)C2(C)C(c3ccc(Cl)o3)C(c3ccc(F)cc3F)=NN2c2ccc(F)cc2F)C1 (stereo not shown) [Compound 249C]
A) 1250

---

Test system: MEFs KRAS Q61R
Assay: Cell proliferation of Ras-less MEFs expressing human KRAS/BRAF
Conditions: Mus musculus
measurement-type: IC50 (µM)
Could you give me the number in µM? Just the number is fine.

Q) Quick one: IC50 of CN1CCOC(CNC(=O)C2(C)C(c3ccc(Cl)o3)C(c3ccc(F)cc3F)=NN2c2ccc(F)cc2F)C1 (stereo not shown) [Compound 249C] ?
A) 0.55

---

Tested on: LOX IMVI (BRAFV600E)
Assay: Cell viability screen, CellTiter-Glo, 72 h
Type: cell-based
Settings: Homo sapiens, ATP content/viability
measurement-type: IC50 (nM)
A number alone suffices; assume nM.

Q) Give its IC50 value. Item: CN1CCOC(CNC(=O)C2(C)C(c3ccc(Cl)o3)C(c3ccc(F)cc3F)=NN2c2ccc(F)cc2F)C1 (stereo not shown) [Compound 249C]
A) 60

---

Target: human H subunit (ATP6V1H) (Homo sapiens, UniProt Q9UI12)
Construct: GST (cleaved yes)
Sequence (Q9UI12 whole entry): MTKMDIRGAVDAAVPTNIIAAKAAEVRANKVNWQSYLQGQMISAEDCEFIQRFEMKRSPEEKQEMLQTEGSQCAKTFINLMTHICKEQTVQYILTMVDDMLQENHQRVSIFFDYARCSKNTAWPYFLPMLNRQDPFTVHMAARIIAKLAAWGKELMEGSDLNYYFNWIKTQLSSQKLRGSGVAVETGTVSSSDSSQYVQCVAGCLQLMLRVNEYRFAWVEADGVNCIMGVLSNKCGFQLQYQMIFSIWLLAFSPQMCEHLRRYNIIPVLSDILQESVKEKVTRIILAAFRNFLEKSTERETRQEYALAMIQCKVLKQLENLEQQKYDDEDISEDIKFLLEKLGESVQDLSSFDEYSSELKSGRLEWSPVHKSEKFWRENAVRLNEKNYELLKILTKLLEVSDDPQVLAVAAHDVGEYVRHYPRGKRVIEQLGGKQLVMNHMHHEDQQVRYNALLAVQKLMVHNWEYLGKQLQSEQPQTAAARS
Experiment: Bio-layer interferometry (BLI)
Conditions: biotinylated-249C on streptavidin sensors
measurement-type: Kd (nM)
Numbers only; they are read as nM.

Q) Short answer please: Kd, human H subunit (ATP6V1H) (Homo sapiens, UniProt Q9UI12), entry CN1CCOC(CNC(=O)C2(C)C(c3ccc(Cl)o3)C(c3ccc(F)cc3F)=NN2c2ccc(F)cc2F)C1 (stereo not shown) [Compound 249C]
A) 501

---

Target: DDR2 (Homo sapiens, UniProt Q16832)
Sequence (Q16832 22-855): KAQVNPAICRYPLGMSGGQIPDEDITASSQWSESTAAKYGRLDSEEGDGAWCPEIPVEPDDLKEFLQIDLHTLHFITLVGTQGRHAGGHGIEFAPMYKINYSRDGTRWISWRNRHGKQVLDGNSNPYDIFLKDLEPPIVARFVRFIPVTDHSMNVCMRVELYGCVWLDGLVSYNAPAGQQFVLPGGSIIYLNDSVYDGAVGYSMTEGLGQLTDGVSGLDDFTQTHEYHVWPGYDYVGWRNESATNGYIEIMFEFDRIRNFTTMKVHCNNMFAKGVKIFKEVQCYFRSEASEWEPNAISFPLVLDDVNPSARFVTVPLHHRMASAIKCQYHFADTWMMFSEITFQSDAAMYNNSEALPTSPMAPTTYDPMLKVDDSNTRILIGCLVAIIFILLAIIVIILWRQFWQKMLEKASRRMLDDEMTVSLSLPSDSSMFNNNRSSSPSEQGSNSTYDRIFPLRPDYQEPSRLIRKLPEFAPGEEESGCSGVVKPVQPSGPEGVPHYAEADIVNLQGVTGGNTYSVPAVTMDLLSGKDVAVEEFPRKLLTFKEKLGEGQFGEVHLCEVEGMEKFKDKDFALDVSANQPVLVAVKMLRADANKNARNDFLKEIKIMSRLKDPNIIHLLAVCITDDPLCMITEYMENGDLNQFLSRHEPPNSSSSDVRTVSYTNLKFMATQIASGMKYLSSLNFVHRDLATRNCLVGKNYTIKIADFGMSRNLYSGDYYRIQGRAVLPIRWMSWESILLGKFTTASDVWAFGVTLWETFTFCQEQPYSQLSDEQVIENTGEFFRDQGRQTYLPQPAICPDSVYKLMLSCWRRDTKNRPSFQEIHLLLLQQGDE
measurement-type: pKd
Reminder that pKd is minus the log10 of a molar concentration.

Q) What value of pKd has been recorded for this entry: CN1CCOC(CNC(=O)C2(C)C(c3ccc(Cl)o3)C(c3ccc(F)cc3F)=NN2c2ccc(F)cc2F)C1 (stereo not shown) [Compound 249C]
A) 4.80
